Data origin: PubChem BioAssay AID588382

Experiment: qHTS of small molecules that selectively kill Giardia lamblia: Hit Validation in HepG2 cytotox;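 further: compound exposure lasted overnight at 37 deg C; nearly all actives have a fitted effect of over 55% in size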
Conditions: cell viability; HepG2 cytotoxicity; series mostly up to 38.3 µM
Among all 1,300 compounds or so, about 150 (12%) were called active. Another 30% or so got no clear call; they are omitted. The call rests on the fitted dose curve; in most records, active means well fitted cell-killing curve with a large enough effect; inconclusive means small, poorly fitted or top-dose-only effect, or effect the other way; inactive means flat fitted curve, though single readings scatter. The full list was thinned out, with actives kept by preference.
Possible outcomes: active, inactive

[[record]]
compound = "COc1cccc2sc(N3CCN(C(=O)c4ccc([N+](=O)[O-])o4)CC3)nc12"
assigned_label = "inactive"

[[record]]
compound = "COc1cc2nc(N3CCN(C)CC3)nc(NC(C)C)c2cc1OC"
assigned_label = "inactive"

[[record]]
compound = "COc1cc(/C=C/c2ccc3cccc(OC)c3n2)c(OC(C)=O)c([N+](=O)[O-])c1"
assigned_label = "inactive"

[[record]]
compound = "O=C(Nc1ccc2c(c1)nc1n2CCSC1)c1ccco1"
assigned_label = "active"

[[record]]
compound = "Cc1ccc(CNC(=O)c2cc(-c3ccccc3C)n(CC3CC(c4cccc([N+](=O)[O-])c4)=NO3)n2)cc1 (stereo not given)"
assigned_label = "inactive"

[[record]]
compound = "Fc1ccc2cc(-c3ccsc3)ncc2c1"
assigned_label = "inactive"

[[record]]
compound = "Cc1ccc(S(=O)(=O)N2[C@@H](c3ccccc3)C(C(=O)O)=CC[C@H]2c2cccc(Cl)c2)cc1"
assigned_label = "inactive"

[[record]]
compound = "CCCCNC(=O)/C(=C\\c1ccc([N+](=O)[O-])o1)NC(=O)c1ccccc1"
assigned_label = "inactive"

[[record]]
compound = "Cn1nc(-c2ccc(F)cc2)nc2c(=O)n(C)c(=O)nc1-2"
assigned_label = "active"

[[record]]
compound = "O=[N+]([O-])c1cccc(-n2nnnc2CNCc2ccccc2)c1"
assigned_label = "inactive"


###

Experiment: qHTS of small molecules that selectively kill Giardia lamblia: Hit Validation in HepG2 cytotox;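 further: compound exposure lasted overnight at 37 deg C; nearly all actives have a fitted effect of over 55% in size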
Conditions: cell viability; HepG2 cytotoxicity; series mostly up to 38.3 µM
Screen size: about 1,300 compounds; about 150 (12%) were called active. Roughly 30% stayed inconclusive and do not appear here. The entries come from a sample that favours actives as a whole.
outcome-measure: outcome

[[record]]
smiles_structure = "Cc1ccc(CN=c2c([N+](=O)[O-])nn(-c3ccc4c(c3)OCCO4)n2O)cc1"
outcome_measure = "outcome"
data_value = "inactive"

[[record]]
smiles_structure = "O=C(CSc1ccsc1[N+](=O)[O-])N1CCN(c2ccccn2)CC1"
outcome_measure = "outcome"
data_value = "inactive"

[[record]]
smiles_structure = "O=C(CCN1C(=O)c2ccccc2C1=O)Nc1ccccc1C(F)(F)F"
outcome_measure = "outcome"
data_value = "inactive"

[[record]]
smiles_structure = "O=C(COc1cccnc1[N+](=O)[O-])Nc1ccc2c(c1)CCC2"
outcome_measure = "outcome"
data_value = "inactive"

[[record]]
smiles_structure = "O=C(/C=C/c1cccc([N+](=O)[O-])c1)c1ccco1"
outcome_measure = "outcome"
data_value = "inactive"

[[record]]
smiles_structure = "O=C(COc1cccnc1[N+](=O)[O-])NCc1ccco1"
outcome_measure = "outcome"
data_value = "inactive"

[[record]]
smiles_structure = "O=Nc1c2ccc[nH]c-2c2ccc([N+](=O)[O-])cc12"
outcome_measure = "outcome"
data_value = "inactive"

[[record]]
smiles_structure = "COc1ccc(C(=O)c2c3ccc(C(F)(F)F)cc3[n+]([O-])n2CCCN)cc1"
outcome_measure = "outcome"
data_value = "inactive"

[[record]]
smiles_structure = "CN(C(=O)CN1CCN(c2ccc([N+](=O)[O-])cn2)CC1)c1ccccc1"
outcome_measure = "outcome"
data_value = "inactive"

[[record]]
smiles_structure = "CC(=O)OCON[N+]([O-])=NC(C)C"
outcome_measure = "outcome"
data_value = "inactive"

[[record]]
smiles_structure = "CCCOC(=O)/C(=C\\c1ccc([N+](=O)[O-])o1)NC(=O)c1ccccc1"
outcome_measure = "outcome"
data_value = "inactive"


###

Experiment: qHTS of small molecules that selectively kill Giardia lamblia: Hit Validation in HepG2 cytotox;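 further: compound exposure lasted overnight at 37 deg C; nearly all actives have a fitted effect of over 55% in size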
Settings: cell viability; HepG2 cytotoxicity; series mostly up to 38.3 µM
The campaign covered roughly 1,300 compounds. About 150 (12%) were called active. Roughly 30% stayed inconclusive and do not appear here. The call rests on the fitted dose curve; in most records, active means well fitted cell-killing curve with a large enough effect; inconclusive means small, poorly fitted or top-dose-only effect, or effect the other way; inactive means flat fitted curve, though single readings scatter. Shown is part of a subset that was picked to be rich in actives.
Labels: yes (active), no (inactive)

[[record]]
compound = "CC(=O)NC(Cc1cccc(C)c1)C(=O)NC1CCN(c2ncccc2[N+](=O)[O-])CC1 (configuration not stated)"
assigned_label = "no"

[[record]]
compound = "CC(OC(=O)c1ccc([N+](=O)[O-])s1)C(=O)NC1CCCCC1C (configuration not stated)"
assigned_label = "no"

[[record]]
compound = "COc1cc(/C=C2\\SC(=O)N(Cc3ccc(Cl)cc3)C2=O)cc([N+](=O)[O-])c1O"
assigned_label = "no"

[[record]]
compound = "O=C(Nc1ccc2oc(-c3ccncc3)nc2c1)c1ccc([N+](=O)[O-])o1"
assigned_label = "yes"

[[record]]
compound = "Clc1ccc(CSc2nc3ccncc3[nH]2)cc1"
assigned_label = "yes"

[[record]]
compound = "COc1cccc(CSc2nc3ccncc3[nH]2)c1"
assigned_label = "yes"

[[record]]
compound = "CC(C)CC(=O)Nc1ncc([N+](=O)[O-])s1"
assigned_label = "no"

[[record]]
compound = "O=C(c1ccc([N+](=O)[O-])o1)N1CCN(c2nc3ccc(F)cc3s2)CC1"
assigned_label = "no"

[[record]]
compound = "Cc1ccc(CCN=c2c([N+](=O)[O-])nn(-c3ccccc3)n2O)cc1"
assigned_label = "no"

[[record]]
compound = "O=C(Nc1ccc2oc(-c3cccnc3)nc2c1)c1ccc([N+](=O)[O-])o1"
assigned_label = "yes"

[[record]]
compound = "O=[n+]1c2c(n([O-])c3cc(Br)ccc31)CCCC2"
assigned_label = "no"

[[record]]
compound = "Cc1ccc(CSc2nc3ccncc3[nH]2)cc1"
assigned_label = "yes"

[[record]]
compound = "Cc1nnc(SCc2ccc([N+](=O)[O-])cc2)[nH]c1=O"
assigned_label = "no"

[[record]]
compound = "O=C(COc1cccnc1[N+](=O)[O-])Nc1c(Cl)cccc1Cl"
assigned_label = "no"

[[record]]
compound = "O=C(c1ccc(CSc2nc3ccncc3[nH]2)cc1)N1CCCCCC1"
assigned_label = "yes"

[[record]]
compound = "Cc1c[nH]c(=O)c([N+](=O)[O-])c1"
assigned_label = "no"

[[record]]
compound = "COc1ccc(CC(NC(C)=O)C(=O)NC2CCN(c3ncccc3[N+](=O)[O-])CC2)cc1 (configuration not stated)"
assigned_label = "no"

[[record]]
compound = "Cc1cccnc1NC(=O)c1ccc([N+](=O)[O-])o1"
assigned_label = "no"

[[record]]
compound = "Cc1cnc([N+](=O)[O-])n1CCOC(=O)NC(=O)c1cccc(F)c1"
assigned_label = "no"

[[record]]
compound = "CC(C)c1ccc(N=c2c([N+](=O)[O-])nn(-c3ccc4c(c3)OCCO4)n2O)cc1"
assigned_label = "no"

[[record]]
compound = "C[C@@H]1CN([C@H](C)CO)C(=O)c2cc(NC(=O)Nc3ccc4c(c3)OCO4)ccc2O[C@H]1CN(C)Cc1ccncc1"
assigned_label = "no"

[[record]]
compound = "Cc1ccc(S(=O)(=O)N2[C@@H](c3ccccc3F)C(C(=O)O)=CC[C@H]2c2cccc(C)c2)cc1"
assigned_label = "no"


###

Experiment: qHTS of small molecules that selectively kill Giardia lamblia: Hit Validation in HepG2 cytotox;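 further: compound exposure lasted overnight at 37 deg C; nearly all actives have a fitted effect of over 55% in size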; further: potency means the concentration at half of the fitted maximal effect
Conditions: cell viability; HepG2 cytotoxicity; series mostly up to 38.3 µM
Hit rate of the full screen: of about 1,300 compounds, about 150 (12%) were called active. Inconclusive results (about 30%) are left out. What follows is part of a selection rich in actives, with near analogues and random picks from the rest.
outcome-measure: Potency

[[record]]
compound = "O=C(COc1cccnc1[N+](=O)[O-])Nc1ccc(F)cc1"
data_value = "inactive"

[[record]]
compound = "CCOC(=O)c1ccc(NS(C)(=O)=O)cc1"
data_value = "inactive"

[[record]]
compound = "Cc1ccc(CC(=O)Nc2ncc([N+](=O)[O-])s2)cc1"
data_value = "inactive"

[[record]]
compound = "Cc1ccc(C(=O)Nc2ncc([N+](=O)[O-])s2)cc1"
data_value = "6.56 µM (active)"

[[record]]
compound = "Cc1nnc(N/N=C/c2cccs2)[nH]c1=O"
data_value = "2.07 µM (active)"

[[record]]
compound = "Cc1cccc(NC(=O)c2ccc([N+](=O)[O-])s2)c1C"
data_value = "inactive"

[[record]]
compound = "Cc1ccc2c(c1)c1nc3ccccc3nc1n2C"
data_value = "inactive"

[[record]]
compound = "Cc1cc2ccccn2c1C(=O)c1ccc([N+](=O)[O-])cc1[N+](=O)[O-]"
data_value = "inactive"

[[record]]
compound = "Cc1ccc([C@@H]2CC=C(C(=O)O)[C@H](c3ccccc3)N2S(=O)(=O)c2ccc(C)cc2)cc1"
data_value = "inactive"

[[record]]
compound = "NC(=O)CCn1c(C(=O)c2cccc([N+](=O)[O-])c2)c2ccccc2[n+]1[O-]"
data_value = "inactive"

[[record]]
compound = "CCOC(=O)C1=C(C)NC2=C(C(=O)c3ccccc32)C1c1ccc([N+](=O)[O-])o1 (stereo unspecified)"
data_value = "inactive"

